Below, each entry is listed alongside its reported protein stability index.
B1: BTBD10 (parent)
chain: DRKLHSRPRKLYKHSSTSSRIAKG

# Variants of: B1
# Assay Protocol: protein stability index of a GFP-peptide fusion (GPS, HEK-293T) (PSI 1-6); higher = more stable;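 note: lentivirally expressed fusions sorted by FACS into six bins by GFP to DsRed ratio, PSI derived from sequencing read proportions per bin multiplied by bin number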
# Stated Conditions: c terminus: a fixed tail appended
The answer should be a number; do not append a unit.

Examples with their reported protein stability index follow.
DRKLHSRPRKLYKHWSTSSRIAKG : 3.1
DRKLHSRRRKLYKHSSTSSRIAKG : 3.18
DRKLHSRPRKLYKHSSTSSRHAKG : 4.04

Data request: What does the data say about its protein stability index? Entry: DRKWHSRPRKLYKHSSTSSRIAKG
Data returned: 3.5

Data request: Try DRKLHSRPRKLYKHSSTSSRQAKG next.
Data returned: 3.36

Data request: Please give the result for DRKHHSRPRKLYKHSSTSSRIAKG too.
Data returned: 4.09
